For each entry below, report its PBM binding z-score value.
# Test system: LXRa:RXRa (NR concentration 270 nM, RXRa partner concentration 90 nM)
# EXPERIMENT DESCRIPTION: PBM binding z-score (relative to random genomic background probes); higher = stronger binding; sequences stand for … in GC…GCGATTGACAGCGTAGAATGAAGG
Give bare numbers.

ATCTCTAGGTAACAAGTTCAGTGGAAGAGAGGAC    0.744

Return reported PBM binding z-score values for all items listed beneath this line.
1. CCTAGCAGGCCAATCTGGGTCACACAAGGCTTGA
2. CCGAGTAGGTTATGAGGCATTCAGGCAACGGTGA
3. CAGCCTAGGTCAGGGCCAGTTTAGGAGGAACGTT
4. GATACAGGGTCAGCTAGAAGCCAGAGTATGGAAA
5. ATCGAAAGTTCGAAGGTGAGTATACCCACCCGAA
6. CCTATTAGTTGACCACAAGGGCAACCGAAGCTCG
7. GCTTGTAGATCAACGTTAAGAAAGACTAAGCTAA

1.82
0.0841
1.26
2.38
1.16
0.65
-0.395

Return reported PBM binding z-score values for all items listed beneath this line.
1. CAGCCAAGGTCAGGGCCAGTATAGGAGGAACGTT
2. CGAACGAGGGCAAGAGTTGATAGCAAATGCCGAT

1. 3.08
2. 0.206
